Molecular target: UniProt:Q07817
Sequence (Q07817 other isoform, or with tags, fused parts or gaps): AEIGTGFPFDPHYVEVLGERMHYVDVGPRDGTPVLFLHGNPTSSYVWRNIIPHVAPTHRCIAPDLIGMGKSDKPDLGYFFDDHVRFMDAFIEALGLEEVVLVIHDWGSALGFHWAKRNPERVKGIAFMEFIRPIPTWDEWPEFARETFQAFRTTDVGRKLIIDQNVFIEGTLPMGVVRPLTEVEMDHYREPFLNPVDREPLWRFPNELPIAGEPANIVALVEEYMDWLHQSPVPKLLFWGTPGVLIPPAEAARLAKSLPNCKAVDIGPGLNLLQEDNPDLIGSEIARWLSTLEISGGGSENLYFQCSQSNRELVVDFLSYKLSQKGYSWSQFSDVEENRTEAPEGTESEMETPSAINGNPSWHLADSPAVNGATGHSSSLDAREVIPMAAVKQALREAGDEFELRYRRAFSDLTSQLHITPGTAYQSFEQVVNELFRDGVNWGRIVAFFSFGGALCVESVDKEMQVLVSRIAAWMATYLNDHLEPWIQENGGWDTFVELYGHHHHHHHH
Experiment: TR-FRET competitive binding assay, BCLXL WT
Settings: ratio Ki BCLxL / Ki BCL2 WT
If the reported TR_FRET EKI BCLxL/WT selectivty ratio equals or exceeds 50, assign True. If not, assign False.

TR_FRET EKI BCLxL/WT selectivty ratio >= 50 for Cc1c(N(C(=O)c2cc(-c3cc4c(cc3C(=O)N3Cc5ccccc5C[C@H]3CN3CCCCC3)CN(C(=O)C(F)(F)c3ccc(OCCN5CCOCC5)cc3)CC4)n(C)c2C)c2ccc(O)cc2)cc(C#N)n1C [Example 178] ?
True

Item Cc1c(N(C(=O)c2cc(-c3cc4c(cc3C(=O)N3Cc5ccccc5C[C@H]3C)CN(C(=O)Cc3cccc(N5CCN6CCOC[C@@H]6C5)c3)CC4)n(C)c2C)c2ccccc2)cc(C#N)n1C [Example 8] with TR_FRET EKI BCLxL/WT selectivty ratio of 50 or above?
False

Please check the record Cc1c(N(C(=O)c2cc(-c3cc4c(cc3C(=O)N3Cc5ccccc5C[C@H]3C)CN(Cc3cc5ccccc5cn3)CC4)n(C)c2C)c2ccc(O)cc2)cc(C#N)n1C [Example 58] and state if its TR_FRET EKI BCLxL/WT selectivty ratio is at or above 50.
False

Is TR_FRET EKI BCLxL/WT selectivty ratio for Cc1c(C(=O)N(c2ccc(O)cc2)c2cc(C#N)n(C(F)F)c2C)cc(-c2cc3c(cc2C(=O)N2Cc4ccccc4C[C@H]2CN2CCCCC2)CN(C(=O)Cc2ccc(OCCN4CCC(F)CC4)cc2F)CC3)n1C [Example 158] at or above 50?
True
